Would you kindly list GI50 for each of these compounds?
# Test system: MCF7
# procedure summary: NCI tumour cell line growth inhibition, 48 h
Active and inactive are the calls of the source. Cut-off read from the data, not from the text of the source: active = GI50 up to about 1.1 µM and inactive = higher.

Solved entries (count: 4):
| compound | recorded result |
| --- | --- |
| COc1cc2c(cc1OC)C1Cc3cc(OC)c(OC)cc3C(C2)O1 | > 100 µM (inactive) |
| CC(C)[Si]1(C(C)C)OCC2OC(n3ccc(=O)[nH]c3=O)C([Se]c3ccccc3)C2O[Si](C(C)C)(C(C)C)O1 (stereo not given) | 2.75 µM (inactive) |
| CC(=O)Nc1sc(Br)cc1S(=O)(=O)c1ccc(Cl)cc1 | 12.8 µM (inactive) |
| O=[N+]([O-])/C(Cl)=C(\NCCN/C(C(Cl)=C(Cl)Cl)=C(/Cl)[N+](=O)[O-])C(Cl)=C(Cl)Cl | 47.6 µM (inactive) |

Now for another entry.
Recall the recorded GI50 for `N/C(=N\NC(=O)c1nc2ccccc2s1)c1ccccn1` with MCF7 and state it.
4.39 µM (inactive)

====

# System: NCI-H460
# procedure summary: NCI tumour cell line growth inhibition, 48 h
Active and inactive are the calls of the source. Rule as the data show it: active = GI50 up to about 1.1 µM and inactive = higher.
measured property: GI50

Solved entries (count: 6):
| compound | GI50 |
| --- | --- |
| O=C(O)C12C3CCCC1C2CC3 (stereo not drawn) | > 100 µM (inactive) |
| Cn1c([N+](=O)[O-])cnc1CN1CCN(CCO)CC1 | > 100 µM (inactive) |
| CC1(C)CC(=O)/C(=C/C2CCNC2=S)C(=O)N1 (stereo not drawn) | > 100 µM (inactive) |
| O=C(Nc1ccccc1)N1C(c2ccccc2)=N[C@@H](c2ccccc2)[C@@H]1c1ccccc1 | 31.4 µM (inactive) |
| COc1ccc(Nc2nc3cc(C(F)(F)F)ccc3nc2-c2ccccc2)cc1OC | 27.7 µM (inactive) |
| N#C/C(=C\c1cc(O)ccc1O)C(N)=O | 40.7 µM (inactive) |

Please supply GI50 for each of the following items, keeping them in order.
1. N#Cc1nc(-c2cccs2)oc1N
2. NC(CCCNCc1ccccc1)C(=O)O (stereo not drawn)
3. Cc1ccccc1C(CCCO)C(=O)O (stereo not drawn)
4. COc1ccccc1/C=N/Nc1nnc2c3ccccc3c3ncccc3c2n1
5. O=C1CCCCC12CCC/C2=N\O (stereo not drawn)
6. O=c1[nH]nc(Cc2ccccc2)n1/N=C/c1ccncc1
7. O=C(O)CCCCn1ccc(=O)[nH]c1=O

1. > 100 µM (inactive)
2. > 100 µM (inactive)
3. > 100 µM (inactive)
4. 45.1 µM (inactive)
5. > 100 µM (inactive)
6. > 100 µM (inactive)
7. > 100 µM (inactive)

====

# Tested on: MCF7
# procedure summary: NCI tumour cell line growth inhibition, 48 h
Activity calls are given as the source filed them. Cut-off read from the data, not from the text of the source: active = GI50 up to about 1.1 µM and inactive = higher.
measured property: GI50

Please supply GI50 for each of the following items, keeping them in order.
1. Cc1ccc2c3c1O[C@H]1c4[nH]c5ccccc5c4C[C@@]4(O)[C@@H](C2)N(C)CC[C@]314
2. C[C@]12CC[C@H]3[C@@H](CC=C4C[C@@H](O)CC[C@@]43C)[C@@H]1C/C(=C\c1ccc([N+](=O)[O-])cc1)[C@@H]2O
3. O=C(O)C1C2C=CC(O2)C1C(=O)Nc1ncccn1 (centres undefined)
4. CC1CCCC2=C1C(c1ccc(Cl)cc1)n1c(s/c(=C\c3ccc(Cl)cc3)c1=O)=N2 (centres undefined)

["16 µM (inactive)", "6.71 µM (inactive)", "> 100 µM (inactive)", "> 100 µM (inactive)"]
